Where these numbers come from: patent US9410142B2

Con A t95/t95, 0 (Shelf-Life Extension Factor) values by entry
molecular target: Concanavalin A (Con A) (Canavalia ensiformis); assay: Con A aggregation / shelf-life at pH 6.5 and 37° C.; type: physicochemical; details: isotonic concentrations; 40 mM sodium phosphate pH 6.5; 37° C.; time for 5% loss of protein vs no additive
Property name: Con A t95/t95, 0 (Shelf-Life Extension Factor)

Molecule	Numeric result
OCC(O)CO [Glycerol, reference compound]	1.3
Cl.N=C(N)NCCC[C@H](N)C(=O)O [ArgHCl, arginine hydrochloride, reference compound]	0.4
N=C(N)NCCNC(=O)CCN(CCC(=O)NCCNC(=N)N)CCN(CCC(=O)NCCNC(=N)N)CCC(=O)NCCNC(=N)N.O=S(=O)(O)O.O=S(=O)(O)O.O=S(=O)(O)O [Gdm(SO4)1/2]	5.9
N=C(N)NCCNC(=O)CCN(CCNC(=O)CCN(CCC(=O)NCCN(CCC(=O)NCCNC(=N)N)CCC(=O)NCCNC(=N)N)CCN(CCC(=O)NCCN(CCC(=O)NCCNC(=N)N)CCC(=O)NCCNC(=N)N)CCC(=O)NCCN(CCC(=O)NCCNC(=N)N)CCC(=O)NCCNC(=N)N)CCC(=O)NCCNC(=N)N.O=S(=O)(O)O.O=S(=O)(O)O.O=S(=O)(O)O.O=S(=O)(O)O.O=S(=O)(O)O.O=S(=O)(O)O.O=S(=O)(O)O [Dend. 1 Gdm(SO4)1/2]	16.7

----------
Molecular target: α-chymotrypsinogen A (aCgn) (Bos taurus)
Test: aCgn aggregation (monomer loss) at 52.5° C. by size exclusion HPLC
Assay type: physicochemical, Bovine
Settings: isotonic concentrations; 20 mM sodium citrate pH 5; 52.5° C.; time for 5% loss of protein vs no additive
Description: The aggregation of aCgn was accelerated by incubating samples at an elevated temperature. […] 15 μL, of each aCgn sample were injected into an Agilent 1200 series HPLC, equipped with a Zorbax GF-250 (4.6×250 mm, 4 micron) size exclusion column and a UV-Vis detector, during a sequence. […] The flow rate was set at 1 mL/min and samples were monitored at 280 nm. […]
Use 3 as the dividing line for aCgn t95/t95, 0 (Shelf-Life Extension Factor), with the line itself on the Yes side and lower values as No.

Compound	Category label
O=S(=O)([O-])[O-].[Na+].[Na+] [Na2SO4, sodium sulfate, reference compound]	Yes
N=C(N)NCCNC(=O)CCN(CCNC(=O)CCN(CCC(=O)NCCN(CCC(=O)NCCNC(=N)N)CCC(=O)NCCNC(=N)N)CCN(CCC(=O)NCCN(CCC(=O)NCCNC(=N)N)CCC(=O)NCCNC(=N)N)CCC(=O)NCCN(CCC(=O)NCCNC(=N)N)CCC(=O)NCCNC(=N)N)CCC(=O)NCCNC(=N)N.O=P(O)(O)O.O=P(O)(O)O.O=P(O)(O)O.O=P(O)(O)O.O=P(O)(O)O.O=P(O)(O)O.O=P(O)(O)O.O=P(O)(O)O.O=P(O)(O)O.O=P(O)(O)O.O=P(O)(O)O.O=P(O)(O)O.O=P(O)(O)O.O=P(O)(O)O	Yes
OC[C@H]1O[C@@](CO)(O[C@H]2O[C@H](CO)[C@@H](O)[C@H](O)[C@H]2O)[C@@H](O)[C@@H]1O [Sucrose, reference compound]	No
N=C(N)NCCNC(=O)CCN(CCC(=O)NCCNC(=N)N)CCN(CCC(=O)NCCNC(=N)N)CCC(=O)NCCNC(=N)N.O=P(O)(O)O.O=P(O)(O)O.O=P(O)(O)O.O=P(O)(O)O.O=P(O)(O)O.O=P(O)(O)O	Yes
Cl.N=C(N)NCCC[C@H](N)C(=O)O [ArgHCl, arginine hydrochloride, reference compound]	Yes
N=C(N)NCCNC(=O)CCN(CCC(=O)NCCNC(=N)N)CCN(CCC(=O)NCCNC(=N)N)CCC(=O)NCCNC(=N)N.O=S(=O)(O)O.O=S(=O)(O)O.O=S(=O)(O)O [Gdm(SO4)1/2]	Yes
